// data source = the supplement of paper PMC10567573

Exercise: for every item that follows, state its recorded protein stability index.
B1: TRIM43 (parent)
chain: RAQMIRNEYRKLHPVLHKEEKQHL

variants of: B1; experiment: protein stability index of a GFP-peptide fusion (GPS, HEK-293T) (PSI 1-6); higher = more stable; details: c terminus: a fixed tail appended;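 note: lentivirally expressed fusions sorted by FACS into six bins by GFP to DsRed ratio, PSI derived from sequencing read proportions per bin multiplied by bin number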
Numbers only.

Reference set, count: 3
K21A ... 2.91
Q3G ... 3.04
L12F ... 2.94

Below is a list of variants. For each, state its recorded protein stability index.
1. V15S
2. K21P
3. E20H
4. K11G
5. K18Q
6. I5Y

[2.94, 2.97, 2.63, 3.76, 3.49, 2.92]

For every item below, please supply its protein stability index.
1. A2S
2. H13G
3. N7W

[2.99, 3.2, 1.96]

# per-item lookup of protein stability index; items listed below
1. P14D
2. H23F
3. R10P
4. P14H
5. Y9G
6. K11L
7. M4A
8. H23I

[3.33, 2.58, 3.76, 2.28, 3.96, 3.49, 3.49, 2.46]
